The reported measurements were obtained from ChEMBL document CHEMBL5154800.

- Test system: Pfeiffer
- protocol: Antiproliferative activity against human Pfeiffer cells assessed as growth inhibition at 0.2 uM measured after 72 hrs by MTT assay
- Format: functional
- test.context: read-out: GI
Listing: inhibition of growth at 0.2 µM of selected compounds
Report as a plain number; the unit % is understood.

Study these solved cases before continuing.
[[record]]
smiles_notation = "Cc1ccc(CNC(=O)[C@H](Cc2ccc3ccccc3c2)NC(=O)[C@H](CCC(=O)NC(C)(C)C)NC(=O)CCNC(=O)CCl)cc1"
readout_label = "inhibition of growth at 0.2 µM"
numeric_result = 28

[[record]]
smiles_notation = "Cc1ccc(CNC(=O)[C@H](Cc2cccc(F)c2)NC(=O)[C@H](CCC(=O)NC(C)(C)C)NC(=O)CCNC(=O)CCl)cc1"
readout_label = "inhibition of growth at 0.2 µM"
numeric_result = 29


Input: // query inhibition of growth at 0.2 µM value for entry Cc1ccc(CNC(=O)[C@H](Cc2ccccc2)NC(=O)[C@H](CCC(=O)NC(C)(C)C)NC(=O)[C@H](CNC(=O)CCl)NC(=O)CN2CCOCC2)cc1
Output: 32

----------
- Tested on: Pfeiffer
- protocol: Antiproliferative activity against human Pfeiffer cells assessed as growth inhibition at 0.2 uM measured after 72 hrs by MTT assay
- Assay type: functional
- test.context: read-out: GI
# reported inhibition of growth at 0.2 µM; entries follow
Report the figure in % without appending any unit label.

# annotated cases, reported inhibition of growth at 0.2 µM shown
[[record]]
compound = "Cc1ccc(CNC(=O)[C@H](Cc2ccccc2)NC(=O)[C@H](CCC(=O)NC(C)(C)C)NC(=O)[C@H](CNC(=O)CCl)NC(=O)c2cc(C)on2)cc1"
numeric_result = 30

[[record]]
compound = "COc1ccc(C[C@H](NC(=O)[C@H](C)NC(=O)CN2CCOCC2)C(=O)NC(Cc2ccccc2)C(=O)[C@@]2(C)CO2)cc1 (stereo partly specified)"
numeric_result = 36

[[record]]
compound = "COc1ccc(/C=C(\\C#N)C(=O)NCCC(=O)N[C@@H](CCC(=O)NC(C)(C)C)C(=O)N[C@@H](Cc2ccccc2)C(=O)NCc2ccc(C)cc2)cc1"
numeric_result = 28


// next item, inhibition of growth at 0.2 µM requested
Input: State the recorded inhibition of growth at 0.2 µM for this entry: Cc1ccc(CNC(=O)[C@H](Cc2ccccc2)NC(=O)[C@H](CCC(=O)NC(C)(C)C)NC(=O)[C@H](CNC(=O)CCl)NC(=O)OC(C)(C)C)cc1
Output: 29

----------
- study.system: Proteasome subunit beta type-9 (Homo sapiens)
- Sequence (P28065 whole entry): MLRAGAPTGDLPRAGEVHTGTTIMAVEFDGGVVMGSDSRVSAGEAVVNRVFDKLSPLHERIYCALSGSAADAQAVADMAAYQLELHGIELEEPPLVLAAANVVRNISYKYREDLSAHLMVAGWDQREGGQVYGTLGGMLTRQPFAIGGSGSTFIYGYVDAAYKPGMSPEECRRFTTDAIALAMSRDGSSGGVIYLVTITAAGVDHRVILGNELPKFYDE
- protocol: Inhibition of 20S proteasome subunit beta-1i (unknown origin) using Ac-PAL-AMC as substrate and measured after 30 mins
Reported IC50 values follow for various compounds

[[record]]
smiles_notation = "CC(C)(C)NC(=O)CC[C@H](NC(=O)CCNC(=O)CCl)C(=O)N[C@@H](Cc1ccccc1)C(=O)NCc1cccc2ccccc12"
result = "> 40 µM"

[[record]]
smiles_notation = "CC(C)(C)NC(=O)CC[C@H](NC(=O)CCNC(=O)CCl)C(=O)N[C@@H](Cc1ccc2ccccc2c1)C(=O)NCc1cccc2ccccc12"
result = "> 40 µM"


Now for the compound whose IC50 we want.
Input: What value of measured IC50 is listed for Cc1ccc(CNC(=O)[C@H](Cc2ccccc2)NC(=O)[C@H](CCC(=O)NC(C)(C)C)NC(=O)CCNC(=O)/C(C#N)=C/c2ccco2)cc1 ?
Output: > 40 µM
